method: APR_HepG2_MitoMass_72hr: Apredica 72-hour HepG2 Assay for Mitochondrial Mass (AID 2282924);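 note: MitoTracker Red CMXRos stain intensity per cell imaged as mitochondrial mass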
experimental conditions: high-content imaging, actives raise or lower the signal
The source made the active and inactive calls. Rule for the calls: active = hit-call score of the fitted dose curve at least 0.9, where 1 is the maximum; inactive = score below 0.9.
Outcome (select one): True (active), False (inactive)

Examples from the recorded data:
>  <molecule>
OCC1CO1 (stereo unspecified)

>  <assigned category>
False

$$$$
>  <molecule>
CCN(CC)c1ccccc1

>  <assigned category>
False

$$$$
>  <molecule>
O=P1(N(CCCl)CCCl)NCCCO1 (stereo unspecified)

>  <assigned category>
False

$$$$
>  <molecule>
O=[N+]([O-])c1ccccc1

>  <assigned category>
False

$$$$
>  <molecule>
CCC(C)(C)c1ccc(O)cc1

>  <assigned category>
True

$$$$
>  <molecule>
Nc1ccc(Cl)cc1

>  <assigned category>
False

$$$$
>  <molecule>
CCCN(CCC)c1c([N+](=O)[O-])cc(C(C)C)cc1[N+](=O)[O-]

>  <assigned category>
True

$$$$
>  <molecule>
Cc1cccc(N)c1

>  <assigned category>
False

$$$$

Ask: Could you please tell me the result logged for COCCOCCO in this assay?
Reply: False

Ask: Could you please tell me the result logged for CC(Cc1ccc(OCC(=O)O)cc1)NCC(O)c1csc(C(F)(F)F)n1 (stereo unspecified) in this assay?
Reply: False

Ask: Could you please tell me the result logged for CCCCCCCc1ccc(O)cc1 in this assay?
Reply: False

Ask: Could you please tell me the result logged for CCCCc1ccccc1 in this assay?
Reply: False

Ask: Could you please tell me the result logged for CCNc1nc(Cl)nc(NC(C)(C)C)n1 in this assay?
Reply: False

Ask: Could you please tell me the result logged for CCCCN(CCCC)N=O in this assay?
Reply: False

Ask: Could you please tell me the result logged for CCOP(=S)(OCC)SCSCC in this assay?
Reply: False

---

method: BSK_CASM3C_Proliferation: Cell Proliferation Assessment in the BioMAP Diversity Plus: CASM3C Assay (AID 2283047);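 note: sulforhodamine B total protein stain as relative cell number at 560 nm; sub-confluent cells exposed 48 h before staining; fitted both ways against DMSO so gain or loss of cell number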
experimental conditions: primary human coronary artery smooth muscle cells
Activity calls are given as the source filed them. Rule for the calls: active = hit-call score of the fitted dose curve at least 0.9, where 1 is the maximum; inactive = score below 0.9.
Outcome (select one): class 1 = active, class 0 = inactive

Examples from the recorded data:
>  <molecule>
O=P(Oc1ccccc1)(Oc1ccccc1)Oc1ccccc1

>  <assigned category>
class 1

$$$$
>  <molecule>
CSC(C)(C)C=NO

>  <assigned category>
class 0

$$$$
>  <molecule>
Cc1ccc(N)cc1N

>  <assigned category>
class 0

$$$$
>  <molecule>
CC(C)Nc1ccc(Nc2ccccc2)cc1

>  <assigned category>
class 1

$$$$

Ask: Could you please tell me the result logged for CCOP(=S)(Oc1ccc([N+](=O)[O-])cc1)c1ccccc1 (stereo not drawn) in this assay?
Reply: class 1

Ask: Could you please tell me the result logged for CCCCN(CCCC)SN(C)C(=O)Oc1cccc2c1OC(C)(C)C2 in this assay?
Reply: class 1

Ask: Could you please tell me the result logged for CCCCC(CC)COC(=O)c1c(Br)c(Br)c(Br)c(Br)c1C(=O)OCC(CC)CCCC (stereo not drawn) in this assay?
Reply: class 0

Ask: Could you please tell me the result logged for O=[N+]([O-])c1ccccc1 in this assay?
Reply: class 0

Ask: Could you please tell me the result logged for CC(Cc1ccc(OCC(=O)O)cc1)NCC(O)c1csc(C(F)(F)F)n1 (stereo not drawn) in this assay?
Reply: class 0

Ask: Could you please tell me the result logged for COP(N)(=S)OC in this assay?
Reply: class 0

Ask: Could you please tell me the result logged for ClC(Cl)(Cl)c1ccccc1 in this assay?
Reply: class 0

Ask: Could you please tell me the result logged for Nc1cc2c3c(c1)C(c1ccccc1)=N[C@@H](NC(=O)c1cccnc1)C(=O)N3CC2 in this assay?
Reply: class 0

Ask: Could you please tell me the result logged for Nc1ccc([N+](=O)[O-])cc1Cl in this assay?
Reply: class 0

---

method: APR_HepG2_CellCycleArrest_72hr: Apredica 72-hour HepG2 Assay for Cell Cycle Arrest (AID 2282914)
experimental conditions: high-content imaging, actives raise or lower the signal
Calls of active or inactive are those of the source. How the source made its calls: active means hit-call score of the fitted dose curve at least 0.9, where 1 is the maximum; inactive means score below 0.9.
Outcome (select one): active, inactive

Examples from the recorded data:
>  <compound>
COCCOCCO

>  <assigned category>
inactive

$$$$
>  <compound>
CN(C)C(=O)Cl

>  <assigned category>
inactive

$$$$

Ask: Could you please tell me the result logged for [N-]=[N+]=[N-] in this assay?
Reply: inactive

Ask: Could you please tell me the result logged for OCC1CO1 (stereo not drawn) in this assay?
Reply: inactive

Ask: Could you please tell me the result logged for c1cc2c3c(cccc3c1)CC2 in this assay?
Reply: inactive

Ask: Could you please tell me the result logged for CCNc1nc(Cl)nc(NC(C)(C)C)n1 in this assay?
Reply: inactive

Ask: Could you please tell me the result logged for CCCCN(CCCC)SN(C)C(=O)Oc1cccc2c1OC(C)(C)C2 in this assay?
Reply: active

Ask: Could you please tell me the result logged for Cc1ccc([N+](=O)[O-])cc1C in this assay?
Reply: inactive

---

Read-out: Human Leukocyte Antigen - DR isotype (HLADR), HLA-DRA (gene 3122)
method: BSK_CASM3C_HLADR: BioMAP Diversity Plus: CASM3C Assay for Human Leukocyte Antigen - DR isotype (HLADR) Biomarker Activity (AID 2283043);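 note: cell-surface HLA-DR protein level quantified by ELISA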
experimental conditions: primary human coronary artery smooth muscle cells; actives raise or lower the signal
Calls of active or inactive are those of the source. Rule for the calls: active = hit-call score of the fitted dose curve at least 0.9, where 1 is the maximum; inactive = score below 0.9.
Outcome (select one): label 1 for active, label 0 for inactive

Examples from the recorded data:
>  <compound>
c1ccc2c(c1)sc1ccccc12

>  <assigned category>
label 0

$$$$
>  <compound>
COP(N)(=S)OC

>  <assigned category>
label 0

$$$$
>  <compound>
O=P(Oc1ccccc1)(Oc1ccccc1)Oc1ccccc1

>  <assigned category>
label 0

$$$$
>  <compound>
CCOC(=O)c1ccccc1C(=O)OCC

>  <assigned category>
label 0

$$$$
>  <compound>
O=C(O)C(Cl)Cl

>  <assigned category>
label 0

$$$$
>  <compound>
CCCCc1ccccc1

>  <assigned category>
label 0

$$$$

Continue with the next compound.
Ask: Could you please tell me the result logged for c1ccc2c(c1)Nc1ccccc1S2 in this assay?
Reply: label 0

---

Read-out: Potassium channel subfamily K member 1 (KCNK1), KCNK1 (gene 3775)
method: LTEA_HepaRG_KCNK1: Life Technologies and Expression Analysis (LTEA) Assay for Potassium channel subfamily K member 1 (KCNK1) using HepaRG (AID 2283511)
experimental conditions: mRNA level, 48 h; actives raise or lower the signal
Calls of active or inactive are those of the source. How the source made its calls: active means hit-call score of the fitted dose curve at least 0.9, where 1 is the maximum; inactive means score below 0.9.
Outcome (select one): active, inactive

>  <compound>
O=[N+]([O-])c1ccccc1

>  <assigned category>
inactive

$$$$
>  <compound>
c1cc2c3c(cccc3c1)CC2

>  <assigned category>
inactive

$$$$
>  <compound>
CCCCCCCc1ccc(O)cc1

>  <assigned category>
inactive

$$$$

Ask: Could you please tell me the result logged for O=C(O)C1C(C(=O)O)C2(Cl)C(Cl)=C(Cl)C1(Cl)C2(Cl)Cl (stereo not drawn) in this assay?
Reply: inactive

Ask: Could you please tell me the result logged for CCOc1ccc(C(C)(C)COCc2cccc(Oc3ccccc3)c2)cc1 in this assay?
Reply: inactive

Ask: Could you please tell me the result logged for Cc1ccc(O)cc1C in this assay?
Reply: inactive

Ask: Could you please tell me the result logged for c1nc[nH]n1 in this assay?
Reply: active

Ask: Could you please tell me the result logged for CC(C)(C)OOC(C)(C)C in this assay?
Reply: inactive

---

method: CPHEA_Stoker_NIS_Cytotoxicity: Cytotoxicity Assessment for CPHEA's Radioactive Iodide Uptake (RAIU) Assay for Sodium/Iodide Symporter (NIS) Inhibition, Stoker and Laws Labs (AID 2283897)
Procedure: CPHEA_Stoker_NIS is a cell-based, single-readout assay that uses hNIS-HEK293T-EPA, a novel human kidney cell line expressing human NIS, with measurements taken at 2 hours after chemical dosing in a 96-well plate. […] A parallel cytoxicity assay (Cell Titer Glo, Promega) was also run in the same cell line.CPHEA_Stoker_NIS_Cytotoxicity is one of 2 assay components measured from the CPHEA_Stoker_NIS assay. […]
Activity calls are given as the source filed them. Rule for the calls: active = hit-call score of the fitted dose curve at least 0.9, where 1 is the maximum; inconclusive = response in the unintended direction; inactive = score below 0.9.
Outcome (select one): yes (1) = active, no (0) = inactive

Examples from the recorded data:
>  <compound>
ClC1=C(Cl)C2(Cl)C3C(Cl)C(Cl)CC3C1(Cl)C2(Cl)Cl (stereo unspecified)

>  <assigned category>
yes (1)

$$$$
>  <compound>
CO/N=C(/C(=O)OC)c1ccccc1COc1ccccc1C

>  <assigned category>
no (0)

$$$$
>  <compound>
O=c1ssc(Cl)c1Cl

>  <assigned category>
yes (1)

$$$$
>  <compound>
CCOP(=S)(OCC)SCSCC

>  <assigned category>
no (0)

$$$$

Ask: Could you please tell me the result logged for CCCCc1ccc(O)cc1 in this assay?
Reply: no (0)

Ask: Could you please tell me the result logged for CCC(C)(C)c1ccc(O)cc1 in this assay?
Reply: no (0)

The origin of these recorded values is PubChem BioAssay (EPA / NIEHS).
